ASSAYED_SYSTEM: Galectin-3 (Homo sapiens, UniProt P17931)
Sequence (P17931 whole entry): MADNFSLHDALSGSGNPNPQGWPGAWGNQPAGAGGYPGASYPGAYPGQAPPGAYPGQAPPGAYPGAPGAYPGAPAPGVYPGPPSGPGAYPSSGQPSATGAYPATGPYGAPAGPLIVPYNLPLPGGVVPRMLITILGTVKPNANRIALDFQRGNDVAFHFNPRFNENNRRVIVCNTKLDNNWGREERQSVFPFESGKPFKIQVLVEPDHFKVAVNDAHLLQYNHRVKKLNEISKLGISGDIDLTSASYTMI
EXPERIMENTAL_PROTOCOL: Inhibition of human recombinant wild type galectin 3 after 60 mins by surface plasmon resonance immunosensor assay
MEASURE: pKd
Numbers only, as −log10 of the molar value.

> print(dat)
                               given.smiles  recorded.value
1  CO[C@H]1O[C@H](CO)[C@H](O)[C@H](OCc2cn([C@H](C(=O)O)[C@@H](C)O)nn2)[C@H]1O            4.05
2  CO[C@H]1O[C@H](CO)[C@H](O)[C@H](OCc2cn([C@@H](Cc3ccc(O)cc3)C(=O)O)nn2)[C@H]1O            4.70
3  CO[C@H]1O[C@H](CO)[C@H](O)[C@H](OCc2cn([C@@H](Cc3cc4ccccc4[nH]3)C(=O)O)nn2)[C@H]1O            4.55
4  CO[C@H]1O[C@H](CO)[C@H](O)[C@H](OCc2cn([C@@H](Cc3ccccc3)C(=O)O)nn2)[C@H]1O            5.10
5  CO[C@H]1O[C@H](CO)[C@H](O)[C@H](OCc2cn([C@@H](CC(=O)O)C(=O)O)nn2)[C@H]1O            4.95

q: What pKd value was documented for this compound, CO[C@H]1O[C@H](CO)[C@H](O)[C@H](OCc2cn([C@@H](CCCCN)C(=O)O)nn2)[C@H]1O ?
a: 5.34
